The values you see were collected from patent US8822517B2.

Some molecules, each annotated with its measured inhibition at 1 µM.
# assayed_target: UniProtKB P35462
# assay_comment: Binding assay D3 (h), [3H]methyl-spiperone, CHO cells
# Design: expressed in transfected cells; host or cells: CHO cells
# condition_details: read-out: D3 [%]
Give just the number in %; leave the unit off.

Recorded inhibition at 1 µM, per entry:
                           structure_smiles    assayed_target  observed
0  O=S(=O)(NCCCCN1CCN(c2nsc3ccccc23)CC1)c1ccc(Cl)s1  UniProtKB P35462        89
1  O=S(=O)(NCCCCN1CCN(c2nsc3ccccc23)CC1)c1cnc2ccccn12  UniProtKB P35462        86

Find the measured inhibition at 1 µM: item Cc1[nH]c2ccc(Cl)cc2c1C1=CCN(CCCCNS(=O)(=O)c2ccc(Cl)cc2)CC1 , target or system UniProtKB P35462.
100

Find the measured inhibition at 1 µM: item O=S(=O)(NCCCN1CCC(c2noc3cc(F)ccc23)CC1)c1ccc2c(c1)OCO2 , target or system UniProtKB P35462.
88

Find the measured inhibition at 1 µM: item Cc1[nH]c2ccc(Cl)cc2c1C1=CCN(CCCCNS(=O)(=O)c2cccc(F)c2)CC1 , target or system UniProtKB P35462.
92

Find the measured inhibition at 1 µM: item Cc1cccc(S(=O)(=O)NCCCCN2CCC(c3noc4cc(F)ccc34)CC2)c1 , target or system UniProtKB P35462.
90

Find the measured inhibition at 1 µM: item N#Cc1cccc(S(=O)(=O)NCCCCN2CCN(c3noc4ccccc34)CC2)c1 , target or system UniProtKB P35462.
87

Find the measured inhibition at 1 µM: item Cc1c(S(=O)(=O)NCCCN2CCN(c3nsc4ccccc34)CC2)sc2ccc(F)cc12 , target or system UniProtKB P35462.
101

Find the measured inhibition at 1 µM: item COc1cccc(S(=O)(=O)NCCCCN2CCC(c3noc4cc(F)ccc34)CC2)c1 , target or system UniProtKB P35462.
96

Find the measured inhibition at 1 µM: item O=S(=O)(NCCCCN1CCN(c2cccc3[nH]ccc23)CC1)c1ccc2ccccc2c1 , target or system UniProtKB P35462.
98

Find the measured inhibition at 1 µM: item Cc1[nH]c2ccc(Cl)cc2c1C1=CCN(CCCNS(=O)(=O)c2cccc(Cl)c2)CC1 , target or system UniProtKB P35462.
57

----------
# assayed_target: serotoninergic 5-HT2A receptor (Homo sapiens, UniProt P28223)
# Sequence (P28223 whole entry): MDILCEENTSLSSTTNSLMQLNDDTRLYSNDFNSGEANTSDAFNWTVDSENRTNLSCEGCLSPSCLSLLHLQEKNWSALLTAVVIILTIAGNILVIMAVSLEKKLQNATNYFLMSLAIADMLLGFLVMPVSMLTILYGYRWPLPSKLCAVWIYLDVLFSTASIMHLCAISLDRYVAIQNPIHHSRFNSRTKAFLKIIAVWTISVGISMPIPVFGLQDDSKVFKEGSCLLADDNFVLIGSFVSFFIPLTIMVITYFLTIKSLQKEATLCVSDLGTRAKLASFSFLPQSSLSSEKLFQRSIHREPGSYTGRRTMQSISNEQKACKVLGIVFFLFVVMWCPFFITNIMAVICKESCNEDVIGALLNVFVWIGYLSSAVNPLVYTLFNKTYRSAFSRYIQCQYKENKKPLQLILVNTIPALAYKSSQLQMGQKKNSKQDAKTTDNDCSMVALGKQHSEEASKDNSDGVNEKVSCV
# assay_comment: Cellular functional assay, serotoninergic 5-HT2A receptor (agonism/antagonism)
# Type: cell-based
# condition_details: read-out: 5-HT2A -antag [%]
readout_kind: inhibition at 1 µM (%)
Give just the number in %; leave the unit off.

Recorded inhibition at 1 µM, per entry:
>>> df
                                   molecule        readout_kind  uom  observed
0  O=S(=O)(NCCCCN1CCN(c2cccc3[nH]ccc23)CC1)c1ccc2ccccc2c1 [Compound 26]  inhibition at 1 µM    %        77
1  O=S(=O)(NCCCN1CCC(c2noc3cc(F)ccc23)CC1)c1ccc2cc(Cl)ccc2c1 [Compound 98]  inhibition at 1 µM    %        97
2  Cc1cccc(S(=O)(=O)NCCCCN2CCN(c3noc4ccccc34)CC2)c1 [Compound 15]  inhibition at 1 µM    %       100
3  O=S(=O)(NCCCCN1CCN(c2nsc3ccccc23)CC1)c1ccc2ccccc2c1 [Compound 2]  inhibition at 1 µM    %       102
4  Cc1c(S(=O)(=O)NCCCCN2CCN(c3noc4ccccc34)CC2)sc2ccc(F)cc12 [Compound 81]  inhibition at 1 µM    %        95

Attention now shifts to the item below.
Item under review: O=S(=O)(NCCCCN1CCC(c2noc3cc(F)ccc23)CC1)c1cc2ccc(Cl)cc2s1 [Compound 314] . Reported inhibition at 1 µM?
99

----------
Some molecules, each annotated with its measured inhibition at 1 µM.
# assayed_target: UniProtKB P28223
# assay_comment: Binding assay 5-HT2A (h), [3H]ketanserin, HEK-293 cells
# Parameters: expressed in transfected cells; host or cells: HEK-293 cells
# condition_details: read-out: 5-HT2A
Enter the number, and then the unit.

Recorded inhibition at 1 µM, per entry:
In [3]: df
Out[3]:
                                   molecule  observed
0  O=S(=O)(NCCCCN1CCC(c2noc3cc(F)ccc23)CC1)c1cccc2scnc12 [Compound 318]       89%
1  O=S(=O)(NCCCCN1CCN(c2nsc3ccccc23)CC1)c1ccc(C(F)(F)F)cc1 [Compound 234]       92%
2  O=S(=O)(NCCCCN1CCN(c2nsc3ccccc23)CC1)c1cccc(Cl)c1 [Compound 69]       92%

Item under review: O=S(=O)(NCCCN1CCN(c2nsc3ccccc23)CC1)c1c[nH]c2ncccc12 [Compound 270] . Reported inhibition at 1 µM?
89%

----------
# assayed_target: serotoninergic 5-HT6 receptor (Homo sapiens)
# Sequence (P50406 whole entry): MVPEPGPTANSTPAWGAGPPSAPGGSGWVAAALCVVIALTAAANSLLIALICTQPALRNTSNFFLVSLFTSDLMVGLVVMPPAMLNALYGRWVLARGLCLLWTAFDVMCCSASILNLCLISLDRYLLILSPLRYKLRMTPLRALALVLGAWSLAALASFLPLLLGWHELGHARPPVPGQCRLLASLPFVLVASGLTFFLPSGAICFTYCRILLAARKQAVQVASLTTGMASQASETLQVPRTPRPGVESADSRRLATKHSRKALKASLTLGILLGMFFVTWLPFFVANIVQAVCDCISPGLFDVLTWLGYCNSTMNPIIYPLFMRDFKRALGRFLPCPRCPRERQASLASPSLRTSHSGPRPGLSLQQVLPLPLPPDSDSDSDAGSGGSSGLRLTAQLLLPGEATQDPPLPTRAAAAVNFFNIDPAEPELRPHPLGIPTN
# assay_comment: Binding assay 5-HT6 (h), [3H]LSD, CHO cells
# Set-up: expressed in transfected cells; host or cells: CHO cells
# condition_details: read-out: 5-HT6
readout_kind: inhibition at 1 µM (%)
Give just the number in %; leave the unit off.

>>> df
                           structure_smiles  observed
0  Cc1[nH]c2ccc(Cl)cc2c1C1=CCN(CCCNS(=O)(=O)c2ccc(Cl)cc2)CC1        87
1  O=S(=O)(NCCCCN1CCC(c2noc3cc(F)ccc23)CC1)c1ccc2c(c1)OCO2        82
2  O=S(=O)(NCCCCN1CCC(c2noc3cc(F)ccc23)CC1)c1ccc(Br)cc1        98

Item under review: Cc1[nH]c2ccc(Cl)cc2c1C1=CCN(CCCNS(=O)(=O)c2cccc(F)c2)CC1 . Reported inhibition at 1 µM?
92

Item under review: O=C1COc2c(cccc2N2CCN(CCCCNS(=O)(=O)c3cccc(Cl)c3)CC2)N1 . Reported inhibition at 1 µM?
70

Item under review: O=S(=O)(NCCCN1CCN(c2nsc3ccccc23)CC1)c1cc2ccc(Cl)cc2s1 . Reported inhibition at 1 µM?
63

Item under review: O=S(=O)(NCCCN1CCC(c2noc3cc(F)ccc23)CC1)c1ccc(F)cc1 . Reported inhibition at 1 µM?
94

Item under review: O=S(=O)(NCCCN1CCN(c2cccc3c2OCCO3)CC1)c1cccc(Cl)c1 . Reported inhibition at 1 µM?
41

Item under review: O=S(=O)(NCCCCN1CCC(c2noc3cc(F)ccc23)CC1)c1ccc2c(c1)OCCO2 . Reported inhibition at 1 µM?
89

Item under review: Cc1cc(S(=O)(=O)NCCCCN2CCC(c3noc4cc(F)ccc34)CC2)c(C)s1 . Reported inhibition at 1 µM?
79

Item under review: Cc1cccc(S(=O)(=O)NCCCCN2CCN(c3nsc4ccccc34)CC2)c1 . Reported inhibition at 1 µM?
83

----------
Some molecules, each annotated with its measured inhibition at 1 µM.
# assayed_target: dopaminergic D3 receptor (Homo sapiens, UniProt P35462)
# Sequence (P35462 whole entry): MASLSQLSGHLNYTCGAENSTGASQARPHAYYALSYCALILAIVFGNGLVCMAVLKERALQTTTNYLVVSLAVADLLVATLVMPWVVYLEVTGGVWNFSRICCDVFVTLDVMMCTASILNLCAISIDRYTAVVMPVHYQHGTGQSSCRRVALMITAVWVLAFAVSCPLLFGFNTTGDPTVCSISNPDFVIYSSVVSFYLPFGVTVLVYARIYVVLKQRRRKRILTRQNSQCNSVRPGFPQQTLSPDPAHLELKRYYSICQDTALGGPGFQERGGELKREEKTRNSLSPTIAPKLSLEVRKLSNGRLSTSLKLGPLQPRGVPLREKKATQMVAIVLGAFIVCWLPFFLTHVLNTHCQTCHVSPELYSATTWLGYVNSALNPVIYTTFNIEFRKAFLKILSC
# assay_comment: Binding assay D3 (h), [3H]methyl-spiperone, CHO cells
# Set-up: expressed in transfected cells; host or cells: CHO cells
# condition_details: read-out: D3 [%]
Give just the number in %; leave the unit off.

Recorded inhibition at 1 µM, per entry:
>>> df
                           structure_smiles  observed
0  O=S(=O)(NCCCN1CCN(c2nsc3ccccc23)CC1)c1cccc(Br)c1        99
1  O=c1[nH]c2cccc(N3CCN(CCCNS(=O)(=O)c4cccc(F)c4)CC3)c2[nH]1        95
2  O=S(=O)(NCCCCN1CCN(c2noc3ccccc23)CC1)c1cnc2ccccn12        65
3  Cc1cc(S(=O)(=O)NCCCCN2CCC(c3noc4cc(F)ccc34)CC2)c(C)s1        90
4  O=S(=O)(NCCCCN1CCN(c2cccc3[nH]ccc23)CC1)c1cnc2ccccn12        98

Find the measured inhibition at 1 µM: item Cc1[nH]c2ccc(Cl)cc2c1C1=CCN(CCCCNS(=O)(=O)c2cccc(O)c2)CC1 , target or system dopaminergic D3 receptor (Homo sapiens, UniProt P35462).
97

Find the measured inhibition at 1 µM: item Cn1ccc2ccc(S(=O)(=O)NCCCCN3CCC(c4noc5cc(F)ccc45)CC3)cc21 , target or system dopaminergic D3 receptor (Homo sapiens, UniProt P35462).
101

Find the measured inhibition at 1 µM: item O=S(=O)(NCCCCN1CCN(c2nsc3ccccc23)CC1)c1cccs1 , target or system dopaminergic D3 receptor (Homo sapiens, UniProt P35462).
85

Find the measured inhibition at 1 µM: item O=S(=O)(NCCCCN1CCN(c2cccc3c2OCCO3)CC1)c1cc2ccccc2s1 , target or system dopaminergic D3 receptor (Homo sapiens, UniProt P35462).
92

Find the measured inhibition at 1 µM: item O=S(=O)(NCCCN1CCN(c2cccc3c2OCCO3)CC1)c1cccc(Cl)c1 , target or system dopaminergic D3 receptor (Homo sapiens, UniProt P35462).
52

Find the measured inhibition at 1 µM: item O=S(=O)(NCCCCN1CCN(c2nsc3ccccc23)CC1)c1ccc2c(c1)CCO2 , target or system dopaminergic D3 receptor (Homo sapiens, UniProt P35462).
89

Find the measured inhibition at 1 µM: item O=S(=O)(NCCCCN1CCC(c2noc3cc(F)ccc23)CC1)c1ccc(Br)cc1 , target or system dopaminergic D3 receptor (Homo sapiens, UniProt P35462).
98

Find the measured inhibition at 1 µM: item O=S(=O)(NCCCN1CCC(c2noc3cc(F)ccc23)CC1)c1cc2cccnc2[nH]1 , target or system dopaminergic D3 receptor (Homo sapiens, UniProt P35462).
94
